target: mTOR kinase (purified recombinant mTOR(1360-2549)+GBL) (Homo sapiens); test: In vitro mTOR kinase assay (TR-FRET); format: biochemical; conditions: class of Ki in the mTOR kinase assay; read-out: mTOR Activity Level
pKi: −log10 of the molar value.
Parameter: pKi. Scope: all listed entries.
Measured parameter: pKi

• CCNC(=O)Nc1ccc(-c2nc3c(c(N4CCCOCC4)n2)CN(S(=O)(=O)c2ccccc2)C3)cc1 = > 7.00
• CCNC(=O)Nc1ccc(-c2nc3c(c(N4CCOC[C@@H]4C)n2)CN(c2ccnc(N)n2)CC3)cc1 = > 7.00
• CCNC(=O)Nc1ccc(-c2nc3c(c(N4CCOCC4)n2)CCN(C(=O)c2cccnc2)C3)cc1 = > 7.00
• CCNC(=O)Nc1ccc(-c2nc3c(c(N4CCOCC4)n2)CCN(c2ccnc(N)n2)C3)cc1 = > 7.00
• CCNC(=O)Nc1ccc(-c2nc3c(c(N4CCOCC4)n2)CN(C2CCN(C(C)=O)CC2)C3)cc1 = > 7.00
• c1cnc(N2CCc3c(nc(-c4ccc(-n5cccn5)cc4)nc3N3CCOCC3)C2)nc1 = 5.30 to 7.00
• Nc1ccc(-c2nc3c(c(N4CCOCC4)n2)CCN(c2ncccn2)C3)cc1 = 5.30 to 7.00
• NC(=O)c1ccc(-c2nc3c(c(N4CCOCC4)n2)CN(c2ncccn2)C3)cc1 = 5.30 to 7.00
• CCNC(=O)Nc1ccc(-c2nc3c(c(C4=CCOCC4)n2)CCN(c2ncccn2)C3)cc1 = 5.30 to 7.00
• CC(C)(C)OC(=O)N1Cc2nc(-c3cnc(N)nc3)nc(N3CCOCC3)c2C1 = 5.30 to 7.00
• CCNC(=O)Nc1ccc(-c2nc3c(c(N4CCOC[C@@H]4C)n2)CNCC3)cc1 = > 7.00
• CCNC(=O)Nc1ccc(-c2nc3c(c(N4CCOC[C@@H]4C)n2)CCNC3)cc1 = > 7.00
• CCNC(=O)Nc1ccc(-c2nc3c(c(N4CCCOCC4)n2)CN(S(C)(=O)=O)C3)cc1 = > 7.00
• CC(=O)Nc1ccc(-c2nc3c(c(N4CCOCC4)n2)CN(c2ncccn2)C3)cc1 = 5.30 to 7.00
• CCNC(=O)Nc1ccc(-c2nc3c(c(N4CCOCC4)n2)CN(C(=O)c2ccncc2)CC3)cc1 = > 7.00
• CCNC(=O)Nc1ccc(-c2nc3c(c(N4CCOCC4)n2)CN(C(=O)Cc2ccccc2)CC3)cc1 [drawing 603] = > 7.00
• CCNC(=O)Nc1ccc(-c2nc3c(c(N4CCOCC4)n2)CN(C(=O)c2ccccn2)CC3)cc1 = > 7.00
• CCNC(=O)Nc1ccc(-c2nc3c(c(N4CCOCC4)n2)CCN(C(=O)c2c(C)oc4ncn(C)c(=O)c24)C3)cc1 = > 7.00

====

target: mTOR kinase (purified recombinant mTOR(1360-2549)+GBL) (Homo sapiens, UniProt P42345); assay: In vitro mTOR kinase assay (TR-FRET); format: biochemical; conditions: mTOR kinase assay of Example 496; read-out: Ki
Sequence (P42345 1360-2549): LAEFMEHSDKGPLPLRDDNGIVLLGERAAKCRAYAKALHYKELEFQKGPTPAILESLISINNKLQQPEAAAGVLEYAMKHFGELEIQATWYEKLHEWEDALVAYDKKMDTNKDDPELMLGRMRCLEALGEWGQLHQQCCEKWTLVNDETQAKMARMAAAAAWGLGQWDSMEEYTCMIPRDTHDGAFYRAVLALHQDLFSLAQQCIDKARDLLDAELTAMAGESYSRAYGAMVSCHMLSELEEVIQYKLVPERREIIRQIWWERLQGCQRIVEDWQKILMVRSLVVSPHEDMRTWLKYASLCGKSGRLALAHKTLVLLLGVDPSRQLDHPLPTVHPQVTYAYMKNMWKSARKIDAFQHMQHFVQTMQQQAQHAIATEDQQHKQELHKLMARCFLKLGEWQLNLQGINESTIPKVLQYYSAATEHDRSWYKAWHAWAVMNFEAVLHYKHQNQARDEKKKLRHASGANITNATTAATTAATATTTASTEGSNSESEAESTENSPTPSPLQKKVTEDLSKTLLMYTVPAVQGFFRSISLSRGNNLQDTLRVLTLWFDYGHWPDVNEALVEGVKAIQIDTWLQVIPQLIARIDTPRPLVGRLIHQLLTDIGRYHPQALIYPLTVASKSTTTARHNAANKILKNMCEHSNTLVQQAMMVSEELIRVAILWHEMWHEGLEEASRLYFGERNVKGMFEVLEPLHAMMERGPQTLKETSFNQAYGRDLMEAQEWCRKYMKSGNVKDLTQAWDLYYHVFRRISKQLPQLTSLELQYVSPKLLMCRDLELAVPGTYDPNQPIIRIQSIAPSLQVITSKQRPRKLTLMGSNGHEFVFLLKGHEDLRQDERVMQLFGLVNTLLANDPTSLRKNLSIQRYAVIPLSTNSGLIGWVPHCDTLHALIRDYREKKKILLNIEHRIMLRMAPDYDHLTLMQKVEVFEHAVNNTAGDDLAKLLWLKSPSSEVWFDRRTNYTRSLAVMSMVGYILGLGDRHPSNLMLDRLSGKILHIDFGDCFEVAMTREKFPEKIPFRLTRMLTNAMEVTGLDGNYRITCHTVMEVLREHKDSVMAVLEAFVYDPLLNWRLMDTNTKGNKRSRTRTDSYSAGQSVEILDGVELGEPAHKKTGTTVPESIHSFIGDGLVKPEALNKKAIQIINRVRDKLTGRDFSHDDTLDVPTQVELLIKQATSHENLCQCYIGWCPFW
Sequence (Q9BVC4 whole entry partner): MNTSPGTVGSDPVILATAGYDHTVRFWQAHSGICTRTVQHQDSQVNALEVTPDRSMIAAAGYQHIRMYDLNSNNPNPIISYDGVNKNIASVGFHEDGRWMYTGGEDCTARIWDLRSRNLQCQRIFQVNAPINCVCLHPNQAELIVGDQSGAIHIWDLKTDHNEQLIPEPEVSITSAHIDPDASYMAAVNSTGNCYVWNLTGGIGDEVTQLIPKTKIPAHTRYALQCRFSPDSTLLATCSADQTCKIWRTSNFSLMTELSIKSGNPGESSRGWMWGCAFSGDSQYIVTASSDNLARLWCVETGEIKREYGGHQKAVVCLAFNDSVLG
pKi: −log10 of the molar value.
Readings of pKi for the listed compounds
Measured parameter: pKi

* CC(=O)Nc1ccc(-c2nc3c(c(N4CCCOCC4)n2)CN(Cc2ccccc2)C3=O)cc1 | 6.60
* CC(C)(C)OC(=O)N1Cc2nc(-c3cnc(N)nc3)nc(C3C=COCC3)c2C1 (stereo not shown) | 6.12
* CCNC(=O)Nc1ccc(-c2nc3c(c(N4CCCOCC4)n2)CN(C(=O)OCc2ccccc2)C3)cc1 [drawing 625] | 8.70
* CCNC(=O)Nc1ccc(-c2nc3c(c(N4CCOC[C@@H]4C)n2)CCN(c2nc(C)cc(C)n2)C3)cc1 | 8.40
* CCNC(=O)Nc1ccc(-c2nc3c(c(N4CCOCC4)n2)CN(Cc2cccc(O)c2)C3)cc1 [drawing 624] | 8.05
* O=C(Nc1ccc(-c2nc3c(c(N4CCOCC4)n2)CN(c2ncccn2)C3)cc1)NC1CCCC1 [drawing 626] | 7.39
* c1cnc(N2CCc3c(nc(-c4ccc5[nH]ncc5c4)nc3N3CCOCC3)C2)nc1 [drawing 628] | 6.20
* CCNC(=O)Nc1ccc(-c2nc3c(c(N4CCOCC4)n2)CCN2C(=O)N(CC)CC[C@@H]32)cc1 | 8.30
* CCNC(=O)Nc1ccc(-c2nc3c(c(N4CCOCC4)n2)CN(C(=O)Cc2ccccc2)CC3)cc1 [drawing 633] | 7.28
* C[C@H]1COCCN1c1nc(-c2ccc(NC(=O)NCC(F)F)cc2)nc2c1CN(C(=O)c1nccs1)CC2 | 7.49

====

target: mTOR kinase (purified recombinant mTOR(1360-2549)+GBL) (Homo sapiens, UniProt P42345); experiment: In vitro mTOR kinase assay (TR-FRET); assay type: biochemical; conditions: class of Ki in the mTOR kinase assay; read-out: mTOR Activity Level
Measured parameter: Ki

- O=C(Nc1ccc(-c2nc3c(c(N4CCOCC4)n2)CCN(c2ncccn2)C3)cc1)NC1CC1: < 100 nM
- CCNC(=O)Nc1ccc(-c2nc3c(c(N4CCCOCC4)n2)CCN(C(=O)OCc2ccccc2)C3)cc1: < 100 nM
- CCNC(=O)Nc1ccc(-c2nc3c(c(N4CCOCC4)n2)CCN(c2ncccn2)C3)cc1: < 100 nM
- CNC(=O)Nc1ccc(-c2nc3c(c(N4CCOCC4)n2)CN(Cc2ccc(OC)cc2)C3=O)cc1: < 100 nM
- CCNC(=O)Nc1ccc(-c2nc3c(c(N4CCOC[C@@H]4C)n2)CCN(c2ccnc(N)n2)C3)cc1: < 100 nM
- O=c1[nH]c2ccc(-c3nc4c(c(N5CCOCC5)n3)CCN(c3ncccn3)C4)cc2[nH]1: 100 to 5000 nM
- COc1ccc(CN2Cc3c(nc(-c4cnc(N)nc4)nc3N3CCOCC3)C2=O)cc1: 100 to 5000 nM
- CCNC(=O)Nc1ccc(-c2nc3c(c(N4CCOCC4)n2)CCN(C(=O)c2ccnn2C)C3)cc1: < 100 nM
- CCNC(=O)Nc1ccc(-c2nc3c(c(N4CCOCC4)n2)CN(C(=O)c2ccc(Cl)cc2)CC3)cc1: < 100 nM
- CCNC(=O)Nc1ccc(-c2nc3c(c(N4CCOCC4)n2)CCN(C(=O)c2cnco2)C3)cc1: < 100 nM
- CCNC(=O)Nc1ccc(-c2nc3c(c(C4CCOCC4)n2)CCN(c2ncccn2)C3)cc1: 100 to 5000 nM
- O=C(NCC1CC1)Nc1ccc(-c2nc3c(c(N4CCOCC4)n2)CCN(c2ncccn2)C3)cc1: < 100 nM
- CCNC(=O)Nc1ccc(-c2nc3c(c(N4CCOCC4)n2)CCN(C(=O)[C@H](C)O)C3)cc1: < 100 nM
- CCNC(=O)Nc1ccc(-c2nc3c(c(N4CCCOCC4)n2)CN(C(=O)OC(C)(C)C)C3)cc1: < 100 nM
- CC(=O)Nc1cccc(-c2nc3c(c(N4CCOCC4)n2)CN(c2ncccn2)C3)c1: 100 to 5000 nM
- CCNC(=O)Nc1ccc(-c2nc3c(c(N4CCOCC4)n2)CCN(C(=O)N2CCOCC2)C3)cc1: < 100 nM
- CCNC(=O)Nc1ccc(-c2nc3c(c(N4CCOCC4)n2)CN(Cc2ccc(O)cc2)C3)cc1: < 100 nM
- CCNC(=O)Nc1ccc(-c2nc3c(c(N4CCOCC4)n2)CCN(C2CCN(C)CC2)C3)cc1: < 100 nM

====

Measured pKi accompanies every entry in the list below.
biological target: mTOR kinase (purified recombinant mTOR(1360-2549)+GBL) (Homo sapiens); assay: In vitro mTOR kinase assay (TR-FRET); assay type: biochemical; details: class of Ki in the mTOR kinase assay; read-out: mTOR Activity Level
pKi: −log10 of the molar value.
Measured parameter: pKi

• CCNC(=O)Nc1ccc(-c2nc3c(c(N4CCOCC4)n2)CN(C(=O)c2ccccc2Cl)CC3)cc1 = > 7.00
• O=C(NCCO)Nc1ccc(-c2nc3c(c(N4CCOCC4)n2)CCN(c2ncccn2)C3)cc1 = 5.30 to 7.00
• c1cnc(N2CCc3c(nc(-c4ccc5[nH]ncc5c4)nc3N3CCOCC3)C2)nc1 [drawing 585] = 5.30 to 7.00
• CCNC(=O)Nc1ccc(-c2nc3c(c(N4CCCOCC4)n2)CN(C2CCN(C(C)=O)CC2)C3)cc1 = > 7.00
• CCNC(=O)Nc1ccc(-c2nc3c(c(N4CCOCC4)n2)CN(C(=O)OCc2ccccc2)C3)cc1 = > 7.00
• CC(C)NC(=O)Nc1ccc(-c2nc3c(c(N4CCOCC4)n2)CCN(c2ncccn2)C3)cc1 = 5.30 to 7.00

====

// Ki lookup, one value per entry
target: mTOR kinase (purified recombinant mTOR(1360-2549)+GBL) (Homo sapiens); assay: In vitro mTOR kinase assay (TR-FRET); format: biochemical; conditions: class of Ki in the mTOR kinase assay; read-out: mTOR Activity Level
Measured parameter: Ki

* CN(C)C(=O)Nc1ccc(-c2nc3c(c(N4CCOCC4)n2)CN(c2ncccn2)C3)cc1 | 100 to 5000 nM
* CCNC(=O)Nc1ccc(-c2nc3c(c(N4CCOCC4)n2)CN(C(=O)c2cccnc2)CC3)cc1 | < 100 nM
* Cc1nnc(-c2ccc(-c3nc4c(c(N5CCOCC5)n3)CCN(c3ncccn3)C4)cc2)o1 | 100 to 5000 nM
* CCNC(=O)Nc1ccc(-c2nc3c(c(C4CCOCC4)n2)CN(C(=O)OC(C)(C)C)C3)cc1 | 100 to 5000 nM
* CCNC(=O)Nc1ccc(-c2nc3c(c(-c4cccnc4)n2)CCN(Cc2ccccc2)C3)cc1 | 100 to 5000 nM
* CCNC(=O)Nc1ccc(-c2nc3c(c(N4CCCOCC4)n2)CCN(C(C)=O)C3)cc1 | < 100 nM
* CC(=O)Nc1ccc(-c2nc3c(c(N4CCOCC4)n2)CN(Cc2ccccc2)C3=O)cc1 | 100 to 5000 nM
* CCNC(=O)Nc1ccc(-c2nc3c(c(N4CCCOCC4)n2)CCN(c2ncccn2)C3)cc1 | < 100 nM
* CCNC(=O)Nc1ccc(-c2nc3c(c(N4CCOCC4)n2)CNCC3)cc1 | < 100 nM
* CCNC(=O)Nc1ccc(-c2nc3c(c(N4CCCOCC4)n2)CN(C(=O)OCc2ccccc2)C3)cc1 [drawing 567] | < 100 nM
* CCNC(=O)Nc1ccc(-c2nc3c(c(N4CCOCC4)n2)CCN(C(=O)c2cocn2)C3)cc1 | < 100 nM
* O=C(Nc1ccc(-c2nc3c(c(N4CCOCC4)n2)CCN(c2ncccn2)C3)cc1)NC1CCC1 | < 100 nM
* CS(=O)(=O)Nc1ccc(-c2nc3c(c(N4CCOCC4)n2)CN(c2ncccn2)C3)cc1 | 100 to 5000 nM
* CCNC(=O)Nc1ccc(-c2nc3c(c(N4CCOCC4)n2)CN(Cc2cccc(O)c2)C3)cc1 [drawing 553] | < 100 nM
* CCNC(=O)Nc1ccc(-c2nc3c(c(N4CCOCC4)n2)CCN(C(=O)c2ccncc2)C3)cc1 | < 100 nM
* CCNC(=O)Nc1ccc(-c2nc3c(c(N4CCOCC4)n2)CN(C(=O)OCC)C3)cc1 | < 100 nM
* CCCNC(=O)Nc1ccc(-c2nc3c(c(N4CCOCC4)n2)CCN(c2ncccn2)C3)cc1 | 100 to 5000 nM
* CCNC(=O)Nc1ccc(-c2nc3c(c(N4CCOCC4)n2)CN(C(=O)/C=C/c2ccccc2)CC3)cc1 | < 100 nM
